The following compounds are shown together with reported composite z-score values.
molecular target: Torsin-1A (Homo sapiens) (UniProt O14656); assay: small-molecule binders of mutant TOR1A in lysate, primary screen, cell lysate, small-molecule microarray, COS7 lysate, 635/667 nm fluorescence (AID 1150); conditions: COS7 hTOR1A mutant lysate, 635 nm fluorescence, higher = more signal;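 also: score pools 667 nm emission and signal to noise measuring lysate protein binding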
Sequence (O14656 whole entry, looked up): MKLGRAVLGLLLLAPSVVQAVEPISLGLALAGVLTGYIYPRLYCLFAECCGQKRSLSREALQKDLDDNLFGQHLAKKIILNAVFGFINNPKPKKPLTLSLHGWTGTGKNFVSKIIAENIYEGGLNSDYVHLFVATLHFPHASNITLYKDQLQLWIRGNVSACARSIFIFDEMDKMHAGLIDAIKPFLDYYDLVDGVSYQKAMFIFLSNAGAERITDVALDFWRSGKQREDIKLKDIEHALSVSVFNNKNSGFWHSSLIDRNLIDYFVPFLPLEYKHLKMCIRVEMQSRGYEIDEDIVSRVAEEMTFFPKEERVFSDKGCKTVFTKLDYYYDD
Number only, no unit.

[
  {
    "compound": "CC1(C)[C@@H]2CC(C(O)C3C=CC4C(=O)N(Cc5ccccc5)C(=O)C4N3n3cnnc3)=C[C@H]1C2 (some centres not stated)",
    "endpoint_label": "composite z-score",
    "numeric_readout": 1.33
  },
  {
    "compound": "C=CC[C@@]12N=C(c3ccc(OCCCO)cc3)O[C@@H]1c1ccccc1N(C)C2=O",
    "endpoint_label": "composite z-score",
    "numeric_readout": 0.713
  },
  {
    "compound": "O=C1C[C@@](C(=O)NC2CC2)(c2ccc([N+](=O)[O-])cc2)[C@@H](c2ccc(CO)cc2I)N1C1CCCCC1",
    "endpoint_label": "composite z-score",
    "numeric_readout": 0.461
  },
  {
    "compound": "CN(C)CCCCCCNC(=O)[C@@H]1C[C@@H]2C(=O)N[C@@H](Cc3ccccc3)C(=O)N2[C@@H]1c1ccc(O)cc1",
    "endpoint_label": "composite z-score",
    "numeric_readout": 1.37
  },
  {
    "compound": "C=C(CC1([C@@H](NP(=O)(c2ccccc2)c2ccccc2)[C@H]2C[C@@H]2CCCC)CC1)c1ccccc1",
    "endpoint_label": "composite z-score",
    "numeric_readout": 0.738
  }
]

Qu. Entry "COCCOC(=O)N1C(=O)[C@@]2(c3cc(C#CCCO)ccc31)[C@H](C(N)=O)[C@H]1C(=O)O[C@H](c3ccccc3)[C@H](c3ccccc3)N1[C@@H]2c1ccc(O)cc1" has what composite z-score?
Ans. -0.176

Qu. Entry "[N-]=[N+]=Nc1ccccc1[C@@H]1OC(c2ccc(OCCCO)cc2)=N[C@]1(Cc1ccccc1)C(=O)N1CCOCC1" has what composite z-score?
Ans. 0.58

----------
The following molecules are shown together with reported z-score values.
assay: osmotic lysis modulators in infected erythrocytes, primary screen, PSAC antagonist project, cell-based, P. falciparum Indochina, OD700, 3 h (AID 1156); conditions: higher = more signal, called active from +8 up or from −8 down
Number only, no unit.

[
  {
    "smi": "C[N+](C)(C)CCCCCCNC(=O)[C@@H]1C[C@@H]2C(=O)N[C@@H](Cc3ccccc3)C(=O)N2[C@@H]1c1cccc(OCCO)c1",
    "z-score": 1.42
  },
  {
    "smi": "CC(C)CNC(=O)[C@@]1(Cc2ccccc2I)c2ccccc2C(=O)N(C2CCCCC2)[C@H]1c1ccc(CO)cc1",
    "z-score": 2.26
  },
  {
    "smi": "CCCC[C@H]1OB(O)C[C@H]2C1=C(COC)C[C@H]1C(=O)N(C)C(=O)[C@H]12",
    "z-score": -1.19
  }
]

// moving on: another record for z-score
Qu. Entry "COC(=O)[C@@]1(Cc2ccc(F)cc2)[C@H]2c3cc(C(=O)N(C)C)n(Cc4cc(F)c(F)c(F)c4)c3C[C@H]2CN1C(=O)c1ccccc1" has what z-score?
Ans. 0.365

----------
assay: fission yeast growth modulation, primary screen, strain 972, OD600, 24 h, no modulator (AID 1090);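 also: basal condition with compound alone and no growth modifier present; test concentration not given here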; conditions: S. pombe 972 growth, higher = more signal, called active from +8 up or from −8 down
Calls of active or inactive are those of the source.
endpoint_label: z-score

Reference set (6 entries):
[
  {
    "compound": "COc1cc2c(cc1OC)CN(C(=O)[C@H]1[C@@H]3C(=O)O[C@@H](c4ccccc4)[C@@H](c4ccccc4)N3[C@@H](c3ccc(O)cc3)[C@]13C(=O)Nc1ccccc13)CC2",
    "result": "0.536 (inactive)"
  },
  {
    "compound": "C[C@H]1C2[C@H](Cc3ccccc3)NC(=O)[C@]23C(=O)N[C@H](Cc2ccccc2)C(=O)N2CCC[C@H]2C(=O)NC/C=C\\C/C=C/C3[C@@H]2O[C@]12C (some centres undefined)",
    "result": "-1.06 (inactive)"
  },
  {
    "compound": "[N-]=[N+]=Nc1ccccc1[C@@H]1OC(c2ccc(OCCCO)cc2)=N[C@]1(CCS(=O)(=O)c1ccccc1)C(N)=O",
    "result": "-1.36 (inactive)"
  },
  {
    "compound": "O=C1C[C@@](C(=O)NCCN2CCOCC2)(c2ccc([N+](=O)[O-])cc2)[C@@H](c2ccc(CO)cc2I)N1CC12CC3CC(CC(C3)C1)C2",
    "result": "-5.93 (inactive)"
  },
  {
    "compound": "C=C(COC)/C(=C/C[C@@H](OC(=O)c1ccncc1)c1ccc(CO)o1)c1cc(C(=O)OC)ccc1OC",
    "result": "-0.262 (inactive)"
  },
  {
    "compound": "O=C1NC(=O)C2C1C=CC(C(O)c1cc(C(F)(F)F)cc(C(F)(F)F)c1)N2Nc1ccccn1 (centres undefined)",
    "result": "1.19 (inactive)"
  }
]

Qu. Entry C=C(C)[C@@H]1CC=C(C(O)C2C=CC3C(=O)N(C)C(=O)C3N2Nc2ccccc2)CC1 (some centres undefined) has what z-score?
Ans. -0.329 (inactive)

Qu. Entry "COC(=O)c1c(CC[C@@H](CO)NC(=O)NCCn2cc(C3(O)CCCC3)nn2)oc(C(C)=O)c1C(=O)OC" has what z-score?
Ans. -0.263 (inactive)

Qu. Entry "O=C1N(Cc2ccccc2)c2ccccc2[C@@H]2OC(c3ccc(OCCCO)cc3)=N[C@]12CCS(=O)(=O)c1ccccc1" has what z-score?
Ans. 1.11 (inactive)

Qu. Entry "C=CCNC(=O)[C@H]1[C@@H]2C(=O)O[C@@H](c3ccccc3)[C@@H](c3ccccc3)N2[C@@H](c2ccccc2OCCO)[C@]12C(=O)Nc1ccc(C#CCC(C(=O)OC)C(=O)OC)cc12" has what z-score?
Ans. 2 (inactive)

Qu. Entry "CN(C)CCCCCCNC(=O)[C@@H]1C[C@@H]2C(=O)N[C@@H](Cc3ccccc3)C(=O)N2[C@@H]1c1ccc(O)cc1" has what z-score?
Ans. -0.899 (inactive)

Qu. Entry CC(C)C(CO)N1C(=O)[C@@H]2C3C(=O)OCCC/C=C\[C@H]3OC23C=CCN(CCN2CCOCC2)C(=O)[C@@H]13 (some centres undefined) has what z-score?
Ans. -0.21 (inactive)

Qu. Entry "CCC[C@@H]1C[C@@]1(CCC)[C@@H](NS(=O)(=O)c1cccc2cccnc12)c1ccc(Cl)cc1" has what z-score?
Ans. 1.01 (inactive)

Qu. Entry CC(C)C[C@@H]1NC(=O)[C@H](C(C)C)NC(=O)[C@@]23C(=O)N[C@@H](Cc4ccccc4)C2[C@H](C)[C@@]2(C)O[C@H]2C3/C=C/CC/C=C/CNC1=O (some centres undefined) has what z-score?
Ans. -0.328 (inactive)

----------
test: small-molecule microarray binders of probe aLefty2, primary screen, biochemical, biotinylated probe, 635/667 nm fluorescence (AID 1094); conditions: higher = more signal;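 also: score merges spot fluorescence near 667 nm with spot signal-to-noise ratio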
The following compounds are shown together with reported composite z-score values.
Number only, no unit.

Reference set (3 entries):
[
  {
    "compound": "O=C(N1CCCCC1)[C@]1(Cc2ccccc2)N=C(c2ccc(OCCCO)cc2)O[C@@H]1c1ccccc1",
    "endpoint_label": "composite z-score",
    "numeric_readout": 0.18
  },
  {
    "compound": "C=CC[C@]1(C(=O)NCCCOC)N=C(c2ccc(OCCCO)cc2)O[C@H]1c1ccccc1CN=[N+]=[N-]",
    "endpoint_label": "composite z-score",
    "numeric_readout": 0.248
  },
  {
    "compound": "COc1ccc(C(O)C2C=CC3C(=O)N(Cc4ccccc4)C(=O)C3N2n2cnnc2)cc1OCc1ccccc1 (centres undefined)",
    "endpoint_label": "composite z-score",
    "numeric_readout": 0.114
  }
]

Qu. Entry "C=CCOC(=O)[C@@H]1[C@H]2C(=O)O[C@H](c3ccccc3)[C@H](c3ccccc3)N2[C@H](c2ccc(OCCOC(=O)[C@H]3C[C@H]4C(=O)N5CCC[C@H]5C(=O)N4[C@H]3c3ccc(O)cc3)cc2)[C@@]12C(=O)Nc1ccc(I)cc12" has what composite z-score?
Ans. -0.203

----------
biological target: Concanavalin-A (Canavalia ensiformis) (UniProt P02866); test: ConA small-molecule binders, primary screen, artefact control for SMM control protein annotation, biochemical, small-molecule microarray, Alexa647 label, 635 nm (AID 1127); settings: ConA-A647 binding fluorescence, higher = more signal;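 also: z combines 667 nm emission intensity with signal-to-noise across three replicate slides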
Sequence (P02866 whole entry, looked up): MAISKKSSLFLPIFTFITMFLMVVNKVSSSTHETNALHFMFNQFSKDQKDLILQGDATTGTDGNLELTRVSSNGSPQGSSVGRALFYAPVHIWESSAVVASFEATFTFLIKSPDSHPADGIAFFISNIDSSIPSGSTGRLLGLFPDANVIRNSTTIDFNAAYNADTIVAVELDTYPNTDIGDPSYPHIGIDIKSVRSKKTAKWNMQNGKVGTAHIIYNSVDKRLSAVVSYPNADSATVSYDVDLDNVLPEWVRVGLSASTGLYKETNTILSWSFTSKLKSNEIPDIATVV
endpoint_label: composite z-score
Number only, no unit.

Reference set (2 entries):
[
  {
    "molecule": "COc1ccc(CCNC(=O)[C@@H]2c3ccccc3C(=O)N(Cc3ccccc3Cl)[C@H]2c2ccc(CO)cc2)cc1",
    "composite z-score": 0.207
  },
  {
    "molecule": "COc1ccc([Si](C)(C)[C@H]2[C@H](CC(=O)N3Cc4ccccc4C[C@H]3CO)O[C@@]3(C(=O)N(Cc4cccc(N5CCC5=O)c4)c4ccccc43)[C@@H]2C)cc1",
    "composite z-score": 0.64
  }
]

Qu. Entry "CC(C)[Si]1(C(C)C)O[C@@H](c2ccccc2)c2cc(-c3ccc(-c4ccc(Cl)c(Cl)c4)o3)nc(-c3ccccc3)c21" has what composite z-score?
Ans. 0.989

Qu. Entry "COc1cc2c(cc1OC)CN(C(=O)[C@H]1[C@@H]3C(=O)O[C@@H](c4ccccc4)[C@@H](c4ccccc4)N3[C@@H](c3ccc(O)cc3)[C@]13C(=O)Nc1ccccc13)CC2" has what composite z-score?
Ans. 0.777

Qu. Entry "C=C(/C(=C/C[C@H](OC(C)=O)c1ccc(CO)o1)c1cc(C(=O)OC)ccc1OC)C(C)C" has what composite z-score?
Ans. -0.237

Qu. Entry "COC(=O)[C@@]1(Cc2ccc(F)cc2)[C@H]2c3cc(C(=O)N(C)C)n(Cc4ccccc4)c3C[C@H]2CN1C(=O)c1ccccc1" has what composite z-score?
Ans. 1.04

Qu. Entry [N-]=[N+]=NCc1ccccc1[C@@H]1OC(c2ccc(OCCCO)cc2)=N[C@]1(Cc1ccccc1)C(=O)NCC(O)CO (some centres undefined) has what composite z-score?
Ans. 0.306

Qu. Entry "[N-]=[N+]=Nc1ccccc1[C@@H]1OC(c2ccc(OCCCO)cc2)=N[C@]1(Cc1ccccc1)C(=O)N1CCOCC1" has what composite z-score?
Ans. 1.09
